Hello, the source for this data is patent US20250026813A1, in case you need it.

The reader will find reported PV neutralization % (Ab 1 ug/mL) values listed item by item below.
target_or_test_system: SARS-CoV-2 spike protein bearing furin mutation and truncation in retention sequence (on pseudoviral envelope) (SARS-CoV-2, UniProt P0DTC2 14-1273)
protocol_summary: cell-based or functional assay
property_label: PV neutralization % (Ab 1 ug/mL) (%)

binder="YANG-2101 (antibody, V domains shown) VH: EVQLVESGGGLVQPGGSLRLSCAASGFTFSLYDMHWVRQATGKGLEWVAGVGIAGDTIYPDSVKGRFTISRENAKNSFFLQMNRLRAGDTAVYYCVRGGTGTTFFDYWGQGVLVTVSS VL: DIQMTQSPSSLSASVGDRVTVTCRASQDITNYLAWFQQKPGKAPKSLIYSASSLQGGTPSKFSGSGSGTEFTLTISSLQPEDFATYYCQQYNSFPLTFGGGTKVEIK" property_label="PV neutralization % (Ab 1 ug/mL)" measured=100
binder="YANG-1402 (antibody, V domains shown) VH: EVQLVESGGGLIQPGGSLRLSCAASGVTVSSNYMNWVRQAPGKGLEWVSVIYSGGSTYYADSVKGRFTISRDNSKNTLYLQMNSLRVEDTAVYYCARDIGDYGMDVWGQGTTVTVSS VL: DIQLTQAPSFLSASVGDRLTITCWASQGISSYLAWYQQKPGKAPKILIYAASTLQSGVPSRFSGSGSGTEFTLTISSLQPEDFATYYCQQLNSYPLIFGGGTKVEIK" property_label="PV neutralization % (Ab 1 ug/mL)" measured=94.5
binder="YANG-2109 (antibody, V domains shown) VH: QVQLVQSGAEVKKPGSSVKVSCKASGGTFSGYTISWIRQAPGQGLEWMGGIIPSFGSLNYGQKFQDRVSITTDELKSTVYMELSSLNSEDTAIYYCTRESITSGYYYGMAVWGQGTTVTVSS VL: DIQMTQSPSSLSASVGDRVTITCRASQGIRDDLGWFQQKPGKAPKRLISAASSLQSGVPSRFSGSGSGTEFTLTISSLQPEDFATYYCLQHNSYPLTFGGGTKVEIR" property_label="PV neutralization % (Ab 1 ug/mL)" measured=95
binder="YANG-2106 (antibody, V domains shown) VH: QVQVVESGGGVVQPGRSLRLSCSASGFTFSTYGMHWVRQAPGKGLEWVAVIWYDGSNKYYADSVKGRFIISRDNSKNTLYLQMSSLRPDDTAVYYCVREGVADGMGVWGQGTTVTVSS VL: NIQMTQSPSAMSASVGDRVTITCRARQDISTYLAWFQQKPGKVPKHLIYAASTLLSGVPSRFGGSGSGTEFTLTITSLQPEDFATYYCLHHNNYPWTFGQGTKVEIK" property_label="PV neutralization % (Ab 1 ug/mL)" measured=93.3
binder="YANG-2105 (antibody, V domains shown) VH: EVQLVESGGGLIQPGGSLRLSCAASGLTVSSNYMNWVRQAPGKGLEWVSVIYSGGSTFYTDSVKGRFTISRDNSKNTLNLQMNSLRAEDTAVYYCARDLGIRGGMDVWGQGTTVTVSS VL: DIQLIQSPSFLSASVGDRVTITCWASQGISSYLAWYQQKPGKAPNLLIYAASTLQSGVPSRFSGSGSGTEFTLTISSLQPEDFATYYCQQLDGSLTFGGGTKVEIK" property_label="PV neutralization % (Ab 1 ug/mL)" measured=99.6
